Target desc: hSSB1 (Homo sapiens, UniProt Q9BQ15 Q9BQ15:1-211)
Sequence (Q9BQ15 whole entry, one chain of several): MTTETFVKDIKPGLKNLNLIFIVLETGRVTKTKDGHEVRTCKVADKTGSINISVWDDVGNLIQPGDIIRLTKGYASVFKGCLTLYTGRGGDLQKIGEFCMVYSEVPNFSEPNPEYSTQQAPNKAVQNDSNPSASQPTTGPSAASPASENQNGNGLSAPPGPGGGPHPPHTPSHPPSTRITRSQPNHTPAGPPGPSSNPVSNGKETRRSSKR
Measurement notes: SPR
Examples of binders with documented binding signal follow.

| Binder | binding signal |
| --- | --- |
| CCAGUAAGCCAGACUUGCAU (ssRNA, 2'-OMe all, full PS) [DKLS399970 (SEQ 61)] | 0.64 normalized Rmax |
| GCCACCCGUCGGUUGCUAGA (ssRNA, 2'-OMe all, full PS) [DKLS659460 (SEQ 52)] | 1.65 normalized Rmax |
| GAGGCAGCAGUACGACGG (ssRNA, 2'-OMe all, full PS) [LSA_ATG 5' truncation 18 nt] | 0.77 normalized Rmax |

response.value for GCUCCAGCAUCUGCUGCUUC (ssRNA, 2'-OMe all, full PS) [DKLS491049 (SEQ 32)] (field: binding signal) = 0.65 normalized Rmax
